System: peripheral blood mononuclear cells (PMBCs)
Format: cell-based, human
Conditions: Vaccination GV1001 + DC (n = 4 + 3)
Could you label it condition met if measured T-cell responses to the individual peptide (patients), counted for SEQ ID NO: 116 is 4 or higher, and condition not met otherwise?

- entry sequence: "LKRVQLRELSEAEVRQ [Conjugate 731]"
  tgt: "peripheral blood mononuclear cells (PMBCs)"
  class: "condition not met"
- entry sequence: "TSRLRFIPKPDGLRP [Conjugate 730]"
  tgt: "peripheral blood mononuclear cells (PMBCs)"
  class: "condition met"
- entry sequence: "FIPKPDGLRPIVNMD [Conjugate 715]"
  tgt: "peripheral blood mononuclear cells (PMBCs)"
  class: "condition not met"
- entry sequence: "RPALLTSRLRFIPKP [Conjugate 714]"
  tgt: "peripheral blood mononuclear cells (PMBCs)"
  class: "condition met"
